Parameter koff: see the listing below.
# system-tested: T1, recombinant human CD127 extracellular domain (CD127 ECD) (human) (UniProt P16871)
# T1 sequence: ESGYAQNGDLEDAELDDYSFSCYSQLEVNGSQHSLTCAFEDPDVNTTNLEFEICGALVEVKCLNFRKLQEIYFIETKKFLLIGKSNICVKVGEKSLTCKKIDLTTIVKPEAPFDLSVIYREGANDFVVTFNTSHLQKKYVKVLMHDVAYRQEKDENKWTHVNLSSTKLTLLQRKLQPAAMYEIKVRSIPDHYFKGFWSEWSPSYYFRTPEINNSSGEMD
# assay-summary: SPR (Biacore T100, 25 °C), antibody captured on rabbit anti-mouse IgG, CD127 ECD as analyte
readout-name: koff (s⁻¹)

| binder | data-value |
| --- | --- |
| mAb GR34 (reverse engineered clone of R34.34) (antibody, mouse IgG1, V domains shown) VH: EVQLQQSGPELVKPGASMKISCKASGYSFTGYTMNWVKQSHGKNLEWIGLINPYSGITSYNQNFKGKATLTVDKSSSTAYMELLNLTSEDSAVYYCARGDGNYWYFDVWGAGTTVTVSS VL: EIILTQSPAITAASLGQKVTITCSASSSVSYMHWYQQKSGTSPKPWIYEISKLASGVPARFSGSGSGTSYSLTISSMEAEDAAIYYCQYWNYPYTFGGGTKLEIK | 0.000875 |
| mAb 6A3 (murine anti-human CD127 monoclonal antibody) (antibody, mouse IgG1, V domains shown) VH: DVQLQESGPGLVKPSQSLSLTCTVTGYSITTDYAWNWIRQFPGNKLEWMGYIFYSGSTTYTPSLKSRISITRDTSKNQFFLQLNSVTTEDTATYYCARGGYDVNYFDYWGQGTTLTVSS VL: DIQMTQSPASQSASLGESVTITCLASQTIGAWLAWYQQKPGKSPQLLIYAATRLADGVPSRFSGSGSGTKFSFKISSLQAEDFVSYYCQQFFSTPWTFGGGTKLEIK | 0.000146 |
| mAb 1A11 (murine anti-human CD127 monoclonal antibody) (antibody, mouse IgG1, V domains shown) VH: EVQLQQSGPELLKPGASMKISCKASGYSFTGYTMNWVKQSHGKNLEWIGLINPYNGVTSYNQKFKGKATLTVAKSSSTAYMELLSLTSEDSAVYYCARGDGNYWYFDVWGAGTTVTVSS VL: EIVLTQSPAITAASLGQKVTITCSASSSVTYMHWYQQKSGTSPKPWIYEISKLASGVPVRFSGSGSGTSYSLTISSMEAEDAAIYYCQEWNYPYTFGGGTKLEIK | 0.000251 |
| mAb 6C5 (murine anti-human CD127 monoclonal antibody) (antibody, mouse IgG1, V domains shown, also called Antibody 6C5) VH: EVKLLESGGGLVQPGGSLKLSCAASGFAFSAYWMSWVRQAPGKGLEWIGEINPDSSTINCTPSLKDKFIISRDNAKNTLSLQMNKVRSEDTALYYCARRLRPFWYFDVWGAGTTVTVSS VL: DVLMTQTPLSLPVSLGDQASISCRSSQSIVQSNGNTYLEWYLQKPGQSPKLLIYKVSNRFSGVPDRFSGSGSGTDFTLKISRVEAEDLGVYYCFQGSHVPRTFGGGTKLEIK | 0.000436 |
